Data provenance is PubChem BioAssay (NCI).

test system: DU-145 prostate; test: NCI-60 one-dose screen, 48 h (100 = growth as untreated, 0 = no growth, -100 = all killed); details: 10 µM unless noted
Compounds without any hit were thinned out: in the full panel of roughly 83,000, 20% have a hit.
Note to self: use TRUE only for growth readings below 80%; a reading exactly at 80% still gets FALSE.

> print(dat)
                               linenotation       systemname  label
1  COC(=O)[C@H](CSC)N(C)C(=O)[C@@H]1CSSC[C@@H](NC(=O)c2nc3ccccc3cc2O)C(=O)NCC(=O)N1C  DU-145 prostate   TRUE
2  COc1ccc2c(c1)O/C(=C\c1cccc(OCC(=O)Nc3nc4ccccc4s3)c1)C2=O  DU-145 prostate   TRUE
3                O=[N+]([O-])c1ccc(OCCO)cc1  DU-145 prostate  FALSE
4  FC(F)(F)c1cc(Nc2ccc3cc(OCCCN4CCOCC4)ccc3n2)ccc1Cl  DU-145 prostate   TRUE
5      Nc1n[nH]c(-c2cc(Cl)ccc2O)c1-c1ccccc1  DU-145 prostate  FALSE

INPUT: Please state whether growth is below 80% for COc1ccc2oc3c(C)c4c(c(C)c3c2c1)C(=O)N(Cc1ccccc1)C4=O
OUTPUT: FALSE

INPUT: Does the reported growth of the following compound sit strictly below 80%? COc1ccc(NC(=O)CSc2nnc(-c3cc(-c4ccccc4)nc4ccccc34)n2-c2ccccc2)cc1
OUTPUT: FALSE
